# Test system: BxPC-3
# PROCEDURE TEXT: Live-cell imaging (IncuCyte) cytotoxicity of SN38 and SN38@F127@PDA
# Format: cell-based, human
# MEASUREMENT CONTEXT: BxPc-3, live-cell imaging, 72 h treatment
MEASUREMENT LABEL: pIC50
Answers are plain numbers, as −log10 of the molar value.

Q: Specify measured pIC50 for CCc1c2c(nc3ccc(O)cc13)-c1cc3c(c(=O)n1C2)COC(=O)[C@]3(O)CC .
Result: 8.05

---

# System: BxPC-3
# PROCEDURE TEXT: MTS assay cytotoxicity of SN38 and SN38@F127@PDA
# Format: cell-based, human
# MEASUREMENT CONTEXT: BxPc-3, MTS, 72 h treatment
MEASUREMENT LABEL: IC50 (nM)
Numbers only, in nM.

Q: Under BxPC-3: report IC50 of CCc1c2c(nc3ccc(O)cc13)-c1cc3c(c(=O)n1C2)COC(=O)[C@]3(O)CC .
Result: 56
